# merged literature set: IC50 with Neuropeptide Y receptor type 5 (Mus musculus)
assay target: Neuropeptide Y receptor type 5 (Mus musculus)
Sequence (O70342 whole entry): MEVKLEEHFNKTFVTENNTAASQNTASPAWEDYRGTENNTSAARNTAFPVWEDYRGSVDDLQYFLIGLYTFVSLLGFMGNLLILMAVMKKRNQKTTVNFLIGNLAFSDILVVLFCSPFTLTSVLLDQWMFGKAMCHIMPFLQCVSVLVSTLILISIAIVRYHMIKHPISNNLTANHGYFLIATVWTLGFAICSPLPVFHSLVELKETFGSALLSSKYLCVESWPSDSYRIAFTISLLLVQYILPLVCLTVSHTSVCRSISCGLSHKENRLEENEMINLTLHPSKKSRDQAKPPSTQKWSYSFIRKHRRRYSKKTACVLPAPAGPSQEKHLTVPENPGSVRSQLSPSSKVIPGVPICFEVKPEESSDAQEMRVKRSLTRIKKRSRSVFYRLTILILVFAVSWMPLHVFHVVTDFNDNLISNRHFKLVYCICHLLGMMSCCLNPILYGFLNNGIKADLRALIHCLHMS
Checkbox rule: IC50 lower than 7 nM = 1; IC50 not lower than 7 nM = 0.

Solved cases below.
>  <molecule>
CCS(=O)(=O)c1ccc2[nH]c(N3CCOC(c4ccc(F)cc4)C3)nc2c1 (stereo not given)

>  <group>
1

$$$$
>  <molecule>
CCCS(=O)(=O)c1ccc2nc(N3CCN(C)C(c4ccccc4)C3)[nH]c2c1 (stereo not given)

>  <group>
1

$$$$
>  <molecule>
COc1cccc(S(=O)(=O)NCCCNc2ncc(C(=O)c3ccccc3C)s2)c1

>  <group>
0

$$$$
>  <molecule>
CCS(=O)(=O)c1ccc2[nH]c(-c3cccc(-c4ccccc4)c3)nc2c1

>  <group>
1

$$$$
>  <molecule>
CCS(=O)(=O)c1ccc2nc(-c3ccc(F)c(-c4ccccc4)c3)[nH]c2c1

>  <group>
1

$$$$

Request: In plain terms, does CCS(=O)(=O)c1ccc2nc(C(F)(F)c3ccc(-c4ccccc4)cc3)[nH]c2c1 come in under 7 nM for IC50?
Response: 0

Request: Below 7 nM on IC50? Entry CC(C)CS(=O)(=O)c1ccc2[nH]c(N3CCOC(c4ccccc4)C3)nc2c1 (stereo not given)
Response: 1

Request: Is 7 nM strictly greater than the molecule's reported IC50? molecule: CCS(=O)(=O)c1ccc2[nH]c(O[C@H]3CC[C@H](c4ccccc4)CC3)nc2c1
Response: 1

Request: Please check: IC50 for Cc1ccccc1C(=O)c1csc(NCCCNS(=O)(=O)c2cccs2)n1 , strictly under 7 nM or not?
Response: 0
